tested on: SEM cells; test: cell viability relative to DMSO control; higher = less cytotoxic; details: RPMI 5 mM glucose + 10% dialyzed FBS; 48 h; 0.569 µM
Readout type: cell viability (%)

1) CO[C@@H]1[C@@H](OC(N)=O)[C@@H](O)[C@H](OC2=CC=C3\C(=C(NC(=O)C4=CC=C([O-])C(=C4)CC=C(C)C)/C(=O)OC3=C2C)O)OC1(C)C; 109
2) Clc1ccccc1C(c1ccccc1)(c1ccccc1)n1cccn1; 124
3) O=C(C1CC1)N1CC[C@@H](Cn2c(-c3ccc(-c4ccc5occc5c4)cc3)nc3cnccc32)C1; 129
4) Nc1nc2ccc(OC(F)(F)F)cc2s1; 147
5) O=C(O)CSCC(=O)NC1CCSC1=O (stereo not given); 107
6) C[C@]12CC[C@@H]3c4ccc(O)cc4CC[C@H]3[C@@H]1CC[C@@H]2O; 114
7) OCCNC1CCCc2c1[nH]c1ccc(-c3ccccc3)cc21 (stereo not given); 99
8) COC(=O)Nc1ccc(-c2nc(N3CCOCC3)c3cnn(C4CCN(Cc5cccnc5)CC4)c3n2)cc1; 43.7
9) CO[C@H]1/C=C/O[C@@]2(C)Oc3c(C)c(O)c4c(O)c(c(/C=N\N5CCN(C6CCCC6)CC5)c(O)c4c3C2=O)NC(=O)/C(C)=C\C=C\[C@H](C)[C@H](O)[C@@H](C)[C@@H](O)[C@@H](C)[C@H](OC(C)=O)[C@@H]1C; 8.21
10) C=CC(=O)Nc1cccc(Oc2nc(Nc3ccc(N4CCN(C)CC4)cc3OC)ncc2Cl)c1; 64.1
